Recorded Ratio IC50 for the following compounds
species: Homo sapiens; experiment: Selectivity ratio of IC50 for TCPTP (unknown origin) using pNPP as substrate to IC50 for PTP1B (unknown origin) using pNPP as substrate

Example entries begin here.
Report Ratio IC50 for CCOC(=O)C1=C(C(C)C)NC(=S)N[C@H]1/C=C/c1ccc(C(F)(F)F)cc1 please. > 9.66

State the recorded Ratio IC50 for this entry: COC(=O)C1=C(C(C)(C)C)NC(=S)N[C@H]1/C=C/c1ccc(Br)cc1 3.28

I am curious: what Ratio IC50 value has been reported for COC(=O)C1=C(C(C)(C)C)NC(=S)N[C@H]1/C=C/c1ccc([N+](=O)[O-])cc1 ? > 8.79

Given the compound COC(=O)C1=C(C(C)(C)C)NC(=S)N[C@H]1/C=C/c1ccc(C)cc1 , what is its reported Ratio IC50? > 6.13

Ratio IC50 lookup needed for COC(=O)C1=C(C(C)(C)C)NC(=S)N[C@H]1/C=C/c1ccc(OC)cc1 , thanks. > 19.9

Give its Ratio IC50 value. Item: COC(=O)C1=C(C(C)(C)C)NC(=S)N[C@H]1/C=C/c1ccc(C(F)(F)F)cc1 > 15.8

I am curious: what Ratio IC50 value has been reported for CCOC(=O)C1=C(C(C)C)NC(=S)N[C@H]1/C=C/c1ccc(Br)cc1 ? > 8.85

Name the reported Ratio IC50 value associated with the compound CCOC(=O)C1=C(C(C)C)NC(=S)N[C@H]1/C=C/c1ccc(OC)cc1 17

Form field: reported Ratio IC50 of COC(=O)C1=C(C(C)C)NC(=S)N[C@H]1/C=C/c1ccc(C(F)(F)F)cc1 > 18.2

# next compound below
I have this compound here, COC(=O)C1=C(C(C)C)NC(=S)N[C@H]1/C=C/c1ccc(F)cc1 , and I need its recorded Ratio IC50. > 30
